# procedure.summary: forskolin-driven CRE-LacZ activity in PC12 – cell-based, CRE-LacZ reporter, forskolin-stimulated, primary screen (AID 1146);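 further: PC12 cells with 6xCRE LacZ reporter stimulated by forskolin 10 µM; beta-galactosidase reporter signal reflecting CREB driven transcription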
# recorded.conditions: luminescence, 4.5 h, higher = more signal, called active from +8 up or from −8 down
Entries annotated with measured z-score
measured.metric: z-score

{"molecule": "C=CCNC(=O)[C@@H]1[C@H]2C(=O)O[C@H](c3ccccc3)[C@H](c3ccccc3)N2[C@H](c2ccc(O)cc2)[C@@]12C(=O)N(C(=O)OCCOC)c1ccc(C#CC3=CCCCC3)cc12", "endpoint.value": -0.0705}
{"molecule": "NCCCCCNC(=O)[C@@H]1C[C@@H]2C(=O)N[C@@H](CCCCN)C(=O)N2[C@@H]1c1ccc(O)cc1", "endpoint.value": -0.878}
{"molecule": "COc1cc(C(O)C2C=CC3C(=O)N(C)C(=O)C3N2Nc2ccccc2)cc(OC)c1OC (centres undefined)", "endpoint.value": -0.944}
{"molecule": "O=c1cccc(-c2ccc([N+](=O)[O-])cc2)o1", "endpoint.value": 0.61}
